Origin of the recorded values: patent EP0065226A2

System: Leukozytenmigration
MEASUREMENT NOTES: Inhibition of leukocyte migration, drug-soaked sponge implanted under the dorsal skin of rats
Format: in vivo, Ratten
REPORTED CONDITIONS: Dosis, lokal 10 mg/Ratte; sponge soaked with compound under the dorsal skin
MEASURED PARAMETER: Hemmung der Leukozyten-migration (Kontrolle = 0 %)
One number for each entry, in %.

> print(dat)
                                   compound     target.or.system  unit.descriptor  meas.value
1    Cc1nnc(NSc2ccc(Cl)cc2)s1 [Beispiel 39]  Leukozytenmigration                %          60
2      c1ccc(SNc2nc[nH]n2)cc1 [Beispiel 11]  Leukozytenmigration                %          76
3  Clc1ccc(SNc2nnc(N3CCOCC3)s2)cc1 [Beispiel 37]  Leukozytenmigration                %          22

Required: Hemmung der Leukozyten-migration (Kontrolle = 0 %), one value per compound below.
1. FC(F)(F)c1cc(SNc2nc[nH]n2)ccc1Cl [Beispiel 28]
2. COC(=O)c1ccc(SNc2nc[nH]n2)cc1 [Beispiel 30]
3. Cc1nnc(NSc2ccccc2)s1 [Beispiel 25]

1: 29; 2: 31; 3: 80

Required: Hemmung der Leukozyten-migration (Kontrolle = 0 %), one value per compound below.
1. c1ccc(SNc2nc(-c3ccccc3)ns2)cc1 [Beispiel 12]
2. Cc1nsc(NSc2ccc(Cl)cc2)n1 [Beispiel 17]
3. c1ccc(SNc2ncccn2)cc1 [Beispiel 2]
4. Cc1nsc(NSc2ccccc2)n1 [Beispiel 16]

35
53
45
67
